Target: T1, human thrombin receptor (human, UniProt P25116 42-425)
T1 chain: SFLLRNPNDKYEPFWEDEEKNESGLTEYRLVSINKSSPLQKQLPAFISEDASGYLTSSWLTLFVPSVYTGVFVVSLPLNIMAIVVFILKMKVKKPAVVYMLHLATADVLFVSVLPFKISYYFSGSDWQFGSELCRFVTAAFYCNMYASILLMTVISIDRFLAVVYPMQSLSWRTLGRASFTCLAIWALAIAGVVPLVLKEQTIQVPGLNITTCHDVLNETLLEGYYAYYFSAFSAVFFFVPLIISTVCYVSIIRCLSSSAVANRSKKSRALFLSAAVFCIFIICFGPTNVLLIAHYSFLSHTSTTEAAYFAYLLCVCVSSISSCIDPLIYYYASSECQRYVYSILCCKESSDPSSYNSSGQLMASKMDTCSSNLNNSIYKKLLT
Assay: cell-based or functional assay
Ends that are not written are not given here.
# EC50 (concentration required to elicit a 50% maximal aggregation), platelet aggregation per entry
Numeric answer only, unit µM assumed.

| binder | unit symbol | meas value |
| --- | --- | --- |
| SXLLR (OMeTyr at position 2; C-terminal amide (NH2)) [S(OMeTyr)LLR-NH2] | µM | 46 |
| SXLLR (Nal at position 2; C-terminal amide (NH2)) [S(Nal)LLR-NH2] | µM | 42 |
| Ac-FLLRNPNDKYEPF [Ac-FLLRNPNDKYEPF] | µM | 796 |

Switching to the query record.
Q. Could you share which EC50 (concentration required to elicit a 50% maximal aggregation), platelet aggregation value was measured for SFLLA-NH2 [SFLLA-NH2] ?
A. 137
